# Test system: NanoLuc
# Assay: NanoLuc luciferase reporter expression from constitutive promoters and RBSs integrated with pNBU2
# Assay type: cell-based, B. thetaiotaomicron
# Condition Context: RBS combined with promoter PBT1311, NanoLuc reporter, three biological replicates
# if measured Average Luminescence (RLU/CFU) < 0.01 RLU/CFU: 1.0  # else: 0.0

Task item: Take the substance B38: RBS, SEQ ID NO: 127 (DNA TCCCGCATTTTAAAATAAAATAAATCATTTAGTTAATTAAACGAAT; chemistry not fully specified) and say whether its Average Luminescence (RLU/CFU) is less than 0.01 RLU/CFU.
Reply: 1.0

Task item: Take the substance B31: RBS, SEQ ID NO: 85 (DNA TCCCGCATTTTAAAATAAAATAAATGATCTAGTTAATTAAACGAAT; chemistry not fully specified) and say whether its Average Luminescence (RLU/CFU) is less than 0.01 RLU/CFU.
Reply: 1.0

Task item: Take the substance C4: RBS, SEQ ID NO: 16 (DNA TCCCGCATTTTAAAATAAAATAAATTATTTATTTAGTTAAACGAAT; chemistry not fully specified) and say whether its Average Luminescence (RLU/CFU) is less than 0.01 RLU/CFU.
Reply: 0.0

Task item: Take the substance C24: RBS, SEQ ID NO: 67 (DNA TCCCGCATTTTAAAATAAAATAAATTATTTCTTTATTTAAACGAAT; chemistry not fully specified) and say whether its Average Luminescence (RLU/CFU) is less than 0.01 RLU/CFU.
Reply: 0.0

Task item: Take the substance A6: RBS, SEQ ID NO: 33 (DNA TCCCGCATTTTAAAATAAAATAAATTATTTCTTTAATTAAACGAAT; chemistry not fully specified) and say whether its Average Luminescence (RLU/CFU) is less than 0.01 RLU/CFU.
Reply: 0.0

Task item: Take the substance B25: RBS, SEQ ID NO: 63 (DNA TCCCGCATTTTAAAATAAAATAAATGATTTAGTTAATTAAACGAAT; chemistry not fully specified) and say whether its Average Luminescence (RLU/CFU) is less than 0.01 RLU/CFU.
Reply: 0.0

Task item: Take the substance B15: RBS, SEQ ID NO: 27 (DNA TCCCGCATTTTAAAATAAAATAAATGATTTACTTAATTAAACGAAT; chemistry not fully specified) and say whether its Average Luminescence (RLU/CFU) is less than 0.01 RLU/CFU.
Reply: 0.0

Task item: Take the substance A31: RBS, SEQ ID NO: 103 (DNA TCCCGCATTTTAAAATAAAATAAATTATTGGTTTATTTAAACGAAT; chemistry not fully specified) and say whether its Average Luminescence (RLU/CFU) is less than 0.01 RLU/CFU.
Reply: 1.0

Task item: Take the substance A40: RBS, SEQ ID NO: 118 (DNA TCCCGCATTTTAAAATAAAATAAATTATTTGTTTATTTAAACGAAT; chemistry not fully specified) and say whether its Average Luminescence (RLU/CFU) is less than 0.01 RLU/CFU.
Reply: 1.0

Task item: Take the substance B17: RBS, SEQ ID NO: 30 (DNA TCCCGCATTTTAAAATAAAATAAATAATTTAGTTAATTAAACGAAT; chemistry not fully specified) and say whether its Average Luminescence (RLU/CFU) is less than 0.01 RLU/CFU.
Reply: 0.0

Task item: Take the substance A34: RBS, SEQ ID NO: 107 (DNA TCCCGCATTTTAAAATAAAATAAATTATTTGTTTACTTAAACGAAT; chemistry not fully specified) and say whether its Average Luminescence (RLU/CFU) is less than 0.01 RLU/CFU.
Reply: 1.0

Task item: Take the substance C25: RBS, SEQ ID NO: 72 (DNA TCCCGCATTTTAAAATAAAATAAATTATTATTTTACTTAAACGAAT; chemistry not fully specified) and say whether its Average Luminescence (RLU/CFU) is less than 0.01 RLU/CFU.
Reply: 0.0

Task item: Take the substance C54: RBS, SEQ ID NO: 141 (DNA TCCCGCATTTTAAAATAAAATAAATTATTCGTTTATTTAAACGAAT; chemistry not fully specified) and say whether its Average Luminescence (RLU/CFU) is less than 0.01 RLU/CFU.
Reply: 1.0

Task item: Take the substance B30: RBS, SEQ ID NO: 82 (DNA TCCCGCATTTTAAAATAAAATAAATGATGTATTTAATTAAACGAAT; chemistry not fully specified) and say whether its Average Luminescence (RLU/CFU) is less than 0.01 RLU/CFU.
Reply: 1.0

###

# System: NanoLuc
# Assay: NanoLuc luciferase reporter expression from constitutive promoters and RBSs integrated with pNBU2
# Format: cell-based, B. thetaiotaomicron
# Condition Context: set of 8 RBSs, under control of PBT1311, NanoLuc reporter
Decision: Expression Level (RLU/CFU) compared against 0.0006 RLU/CFU; not below it gives criterion met, below it gives criterion not met.

Task item: Reported Expression Level (RLU/CFU) reaches at least 0.0006 RLU/CFU for C51: RBS, SEQ ID NO: 136 (DNA TCCCGCATTTTAAAATAAAATAAATTATTATTTTATTTAAACGAAT; chemistry not fully specified) ?
Reply: criterion met

Task item: Reported Expression Level (RLU/CFU) reaches at least 0.0006 RLU/CFU for B1: RBS, SEQ ID NO: 1 (DNA TCCCGCATTTTAAAATAAAATAAATTATTCGTTTAGTTAAACGAAT; chemistry not fully specified) ?
Reply: criterion met

Task item: Reported Expression Level (RLU/CFU) reaches at least 0.0006 RLU/CFU for C33: RBS, SEQ ID NO: 93 (DNA TCCCGCATTTTAAAATAAAATAAATTATTAGTTTACTTAAACGAAT; chemistry not fully specified) ?
Reply: criterion met

Task item: Reported Expression Level (RLU/CFU) reaches at least 0.0006 RLU/CFU for C56: RBS, SEQ ID NO: 143 (DNA TCCCGCATTTTAAAATAAAATAAATTATTCGTTTAGTTAAACGAAT; chemistry not fully specified) ?
Reply: criterion not met

Task item: Reported Expression Level (RLU/CFU) reaches at least 0.0006 RLU/CFU for rpiL*-C39: RBS, SEQ ID NO: 176; sequence and value match B39 of Table 1 (DNA TCCCGCATTTTAAAATAAAATAAATCATCTAGTTAATTAAACGAATATG; chemistry not fully specified) ?
Reply: criterion met

Task item: Reported Expression Level (RLU/CFU) reaches at least 0.0006 RLU/CFU for rpiL*: parent ribosomal protein RBS, SEQ ID NO: 39, 172, 174 (DNA TCCCGCATTTTAAAATAAAATAAATTATTTATTTAATTAAACGAAT; chemistry not fully specified) ?
Reply: criterion met
